- target-or-test-system: human insulin receptor (IR-A) (Homo sapiens)
- Sequence (P06213 28-746 isoform P06213-2 limits assumed): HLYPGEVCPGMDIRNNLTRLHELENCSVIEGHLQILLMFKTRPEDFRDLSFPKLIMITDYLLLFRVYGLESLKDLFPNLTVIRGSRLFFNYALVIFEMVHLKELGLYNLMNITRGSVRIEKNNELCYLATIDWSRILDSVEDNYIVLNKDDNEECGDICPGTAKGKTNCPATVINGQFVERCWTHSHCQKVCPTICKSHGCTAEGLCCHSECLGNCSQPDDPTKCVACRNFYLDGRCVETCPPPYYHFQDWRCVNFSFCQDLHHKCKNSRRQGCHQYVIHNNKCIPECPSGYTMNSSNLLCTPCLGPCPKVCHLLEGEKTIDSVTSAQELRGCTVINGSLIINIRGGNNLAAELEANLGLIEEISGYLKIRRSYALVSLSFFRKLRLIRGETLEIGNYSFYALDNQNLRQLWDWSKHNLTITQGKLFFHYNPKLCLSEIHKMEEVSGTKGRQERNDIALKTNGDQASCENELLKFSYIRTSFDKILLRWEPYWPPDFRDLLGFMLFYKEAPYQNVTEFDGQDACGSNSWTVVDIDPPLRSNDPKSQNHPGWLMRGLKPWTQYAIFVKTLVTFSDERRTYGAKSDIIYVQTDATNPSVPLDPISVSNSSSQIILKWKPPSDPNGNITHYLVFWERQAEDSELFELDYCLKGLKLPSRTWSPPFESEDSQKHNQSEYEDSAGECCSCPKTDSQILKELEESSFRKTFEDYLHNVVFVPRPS
- Sequence (P06213 763-1382 partner limits assumed): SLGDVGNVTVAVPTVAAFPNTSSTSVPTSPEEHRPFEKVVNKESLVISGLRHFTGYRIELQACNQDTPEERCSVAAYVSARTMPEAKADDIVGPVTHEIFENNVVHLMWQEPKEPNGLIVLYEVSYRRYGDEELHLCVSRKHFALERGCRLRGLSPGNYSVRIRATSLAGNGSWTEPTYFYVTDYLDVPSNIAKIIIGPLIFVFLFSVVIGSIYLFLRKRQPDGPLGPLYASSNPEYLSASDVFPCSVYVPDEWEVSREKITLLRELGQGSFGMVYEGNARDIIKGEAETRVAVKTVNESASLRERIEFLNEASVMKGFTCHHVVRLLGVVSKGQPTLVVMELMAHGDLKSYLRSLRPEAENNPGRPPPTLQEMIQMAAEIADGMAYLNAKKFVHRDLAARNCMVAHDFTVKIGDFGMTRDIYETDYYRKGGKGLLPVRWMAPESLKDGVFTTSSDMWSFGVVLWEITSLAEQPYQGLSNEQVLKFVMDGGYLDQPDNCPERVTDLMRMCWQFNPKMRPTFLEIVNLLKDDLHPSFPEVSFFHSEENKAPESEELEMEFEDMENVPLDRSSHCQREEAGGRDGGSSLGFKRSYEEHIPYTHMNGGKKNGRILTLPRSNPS
- measurement-context: relative to affinity of human insulin; […] HSA in binding buffer
Starred links: 1 amine or outer side, 2 acyl side, 3 side chain; linkers in the order of their positions; H or OH if unused. Positions of bridges follow the written chain, without caps; N, C: chain ends. Groups on a side chain read outwards from the residue. Chains are numbered I, II in the order given. No end group written: not given here. *: point of attachment. Phe(Nα-CONH2) = NC(=O)N[C@@H](Cc1ccccc1)C(=O)*; C20 diacid = O=C(O)CCCCCCCCCCCCCCCCCCC(=O)*; C18 diacid = O=C(O)CCCCCCCCCCCCCCCCC(=O)*; C16 diacid = O=C(O)CCCCCCCCCCCCCCC(=O)*; NMe2Phe = CN(C)[C@@H](Cc1ccccc1)C(=O)*; γGlu = O=C(O)[C@H](CCC(=O)[*:2])N[*:1]; Hydantoyl = NC(=O)NCC(=O)*; AEEA = NCCOCCOCC(=O)O; Me2Gly = CN(C)CC(=O)*
Quick reference for Relative IR-A affinity (@ […] HSA) (%)e among some substances
value-kind: Relative IR-A affinity (@ […] HSA) (%)e

{"columns": ["substance", "target-or-test-system", "result"],
 "data": [
  ["I: {Phe(Nα-CONH2)}-VNQHLCGSHLVEALYLVCGERGFHYPK([AEEA-AEEA-γGlu-C20 diacid]) / II: Hydantoyl-IVEQCCTSICSLEQLENYCN (disulfide I:6-II:6, I:18-II:19, II:5-II:10) [Example 28]", "human insulin receptor (IR-A) (Homo sapiens)", "0.25%"],
  ["I: NMe2Phe-VNQHLCGSHLVEALYLVCGERGFHYTPK([AEEA-AEEA-γGlu-C18 diacid]) / II: Me2Gly-IVEQCCTSICSLEQLENYCN (disulfide I:6-II:6, I:18-II:19, II:5-II:10) [Example 1]", "human insulin receptor (IR-A) (Homo sapiens)", "0.09%"],
  ["I: {Phe(Nα-CONH2)}-VNQHLCGSHLVEALYLVCGERGFHYTPK([γGlu-C20 diacid]) / II: Hydantoyl-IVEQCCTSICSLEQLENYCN (disulfide I:6-II:6, I:18-II:19, II:5-II:10) [Example 14]", "human insulin receptor (IR-A) (Homo sapiens)", "0.00%"],
  ["I: {Phe(Nα-CONH2)}-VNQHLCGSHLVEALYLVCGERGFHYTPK([AEEA-AEEA-γGlu-C18 diacid]) / II: Hydantoyl-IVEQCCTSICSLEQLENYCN (disulfide I:6-II:6, I:18-II:19, II:5-II:10) [Example 12]", "human insulin receptor (IR-A) (Homo sapiens)", "0.06%"],
  ["I: {Phe(Nα-CONH2)}-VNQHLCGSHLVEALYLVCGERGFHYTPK([γGlu-C16 diacid]) / II: Hydantoyl-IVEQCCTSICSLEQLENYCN (disulfide I:6-II:6, I:18-II:19, II:5-II:10) [Example 13]", "human insulin receptor (IR-A) (Homo sapiens)", "0.02%"],
  ["I: {Phe(Nα-CONH2)}-VNQHLCGSHLVEALYLVCGERGFFYPK([γGlu-C16 diacid]) / II: Hydantoyl-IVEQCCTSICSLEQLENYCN (disulfide I:6-II:6, I:18-II:19, II:5-II:10) [Example 19]", "human insulin receptor (IR-A) (Homo sapiens)", "0.14%"],
  ["I: NMe2Phe-VNQHLCGSHLVEALHLVCGERGFHYTPK([AEEA-AEEA-γGlu-C20 diacid]) / II: Me2Gly-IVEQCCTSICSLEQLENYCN (disulfide I:6-II:6, I:18-II:19, II:5-II:10) [Example 7]", "human insulin receptor (IR-A) (Homo sapiens)", "0.03%"],
  ["I: {Phe(Nα-CONH2)}-VNQHLCGSHLVEALYLVCGERGFFYPK([AEEA-AEEA-γGlu-C20 diacid]) / II: Hydantoyl-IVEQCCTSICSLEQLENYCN (disulfide I:6-II:6, I:18-II:19, II:5-II:10) [Example 29]", "human insulin receptor (IR-A) (Homo sapiens)", "0.20%"]
]}
